# target.or.test.system: UniProt P17655
# Sequence (P17655 whole entry): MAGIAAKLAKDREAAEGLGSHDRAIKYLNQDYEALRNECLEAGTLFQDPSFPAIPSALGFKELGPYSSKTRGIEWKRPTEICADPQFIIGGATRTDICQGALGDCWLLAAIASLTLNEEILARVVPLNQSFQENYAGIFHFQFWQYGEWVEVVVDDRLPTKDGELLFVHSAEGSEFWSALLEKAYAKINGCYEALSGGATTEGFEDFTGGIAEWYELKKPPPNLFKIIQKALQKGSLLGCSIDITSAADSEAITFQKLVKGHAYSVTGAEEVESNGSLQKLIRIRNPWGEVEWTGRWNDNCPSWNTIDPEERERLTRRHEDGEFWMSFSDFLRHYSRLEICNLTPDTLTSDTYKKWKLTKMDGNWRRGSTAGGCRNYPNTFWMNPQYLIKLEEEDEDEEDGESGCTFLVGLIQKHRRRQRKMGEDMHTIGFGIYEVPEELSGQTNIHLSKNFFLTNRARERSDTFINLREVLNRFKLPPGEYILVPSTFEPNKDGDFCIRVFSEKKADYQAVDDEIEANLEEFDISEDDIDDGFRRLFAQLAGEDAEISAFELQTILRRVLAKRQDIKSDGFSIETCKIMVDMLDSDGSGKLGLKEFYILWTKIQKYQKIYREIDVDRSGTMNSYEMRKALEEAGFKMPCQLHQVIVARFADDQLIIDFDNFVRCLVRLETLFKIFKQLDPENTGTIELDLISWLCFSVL
# Sequence (P04632 whole entry partner): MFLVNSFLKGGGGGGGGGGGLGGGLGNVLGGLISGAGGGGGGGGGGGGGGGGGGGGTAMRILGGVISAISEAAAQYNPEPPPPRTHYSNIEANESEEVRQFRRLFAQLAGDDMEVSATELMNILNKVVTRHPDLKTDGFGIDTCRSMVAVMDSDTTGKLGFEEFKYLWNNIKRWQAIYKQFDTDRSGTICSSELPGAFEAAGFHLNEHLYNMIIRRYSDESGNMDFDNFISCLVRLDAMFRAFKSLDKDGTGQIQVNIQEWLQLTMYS
# assay.details: Anti-calpain activity, calpain II (casein hydrolysis, Ross-Schatz method)
# Assay type: biochemical
pIC50: −log10 of the molar value.
assay.endpoint: pIC50

{"molecule": "CCCC[C@@H](C=O)NC(=O)[C@H](CC(C)C)NP(=S)(c1ccccc1)c1ccccc1", "target.or.test.system": "UniProt P17655", "reported.result": 6.92}
{"molecule": "CC(=O)N[C@@H](CC(C)C)C(=O)N[C@@H](CC(C)C)C(=O)N[C@H](C=O)CCCNC(=N)N [Leupeptin, reference compound]", "target.or.test.system": "UniProt P17655", "reported.result": 6.03}
